Catalogue of normalised inhibition (eCFP-eYFP dual reporter) values
Target: Mmp7 (rat)
Assay: reporter assay of Huesken 2005; further: test concentration or dose not given here
Conditions: siRNA
Oligonucleotides are given in HELM: sugar(base)linkage, 5' to 3'; d 2'-deoxyribose, r ribose, m 2'-O-methylribose, p phosphate. ss, as = sense and antisense strand
Give the value in % but do not write % after it.

RNA1{r(U)p.r(C)p.r(U)p.r(G)p.r(U)p.r(G)p.r(A)p.r(U)p.r(G)p.r(U)p.r(A)p.r(C)p.r(C)p.r(C)p.r(U)p.r(A)p.r(C)p.r(C)p.r(U)p.d(T)p.d(T)}|RNA2{r(A)p.r(G)p.r(G)p.r(U)p.r(A)p.r(G)p.r(G)p.r(G)p.r(U)p.r(A)p.r(C)p.r(A)p.r(U)p.r(C)p.r(A)p.r(C)p.r(A)p.r(G)p.r(A)p.d(A)p.d(C)}$$$RNA1{StrandType:ss}|RNA2{StrandType:as}$ :: 55.2
RNA1{r(G)p.r(C)p.r(U)p.r(C)p.r(A)p.r(C)p.r(U)p.r(U)p.r(U)p.r(G)p.r(A)p.r(C)p.r(A)p.r(A)p.r(G)p.r(G)p.r(A)p.r(U)p.r(G)p.d(T)p.d(T)}|RNA2{r(C)p.r(A)p.r(U)p.r(C)p.r(C)p.r(U)p.r(U)p.r(G)p.r(U)p.r(C)p.r(A)p.r(A)p.r(A)p.r(G)p.r(U)p.r(G)p.r(A)p.r(G)p.r(C)p.d(A)p.d(T)}$$$RNA1{StrandType:ss}|RNA2{StrandType:as}$ :: 102
RNA1{r(G)p.r(A)p.r(A)p.r(U)p.r(U)p.r(A)p.r(U)p.r(C)p.r(U)p.r(U)p.r(A)p.r(G)p.r(G)p.r(A)p.r(A)p.r(A)p.r(U)p.r(U)p.r(U)p.d(T)p.d(T)}|RNA2{r(A)p.r(A)p.r(A)p.r(U)p.r(U)p.r(U)p.r(C)p.r(C)p.r(U)p.r(A)p.r(A)p.r(G)p.r(A)p.r(U)p.r(A)p.r(A)p.r(U)p.r(U)p.r(C)p.d(T)p.d(G)}$$$RNA1{StrandType:ss}|RNA2{StrandType:as}$ :: 116
RNA1{r(C)p.r(C)p.r(U)p.r(U)p.r(C)p.r(A)p.r(C)p.r(G)p.r(A)p.r(C)p.r(U)p.r(C)p.r(U)p.r(A)p.r(A)p.r(A)p.r(A)p.r(C)p.r(A)p.d(T)p.d(T)}|RNA2{r(U)p.r(G)p.r(U)p.r(U)p.r(U)p.r(U)p.r(A)p.r(G)p.r(A)p.r(G)p.r(U)p.r(C)p.r(G)p.r(U)p.r(G)p.r(A)p.r(A)p.r(G)p.r(G)p.d(T)p.d(A)}$$$RNA1{StrandType:ss}|RNA2{StrandType:as}$ :: 126

From here, focus on the item given below.
For this substance ( RNA1{r(A)p.r(A)p.r(C)p.r(A)p.r(A)p.r(A)p.r(G)p.r(A)p.r(A)p.r(G)p.r(G)p.r(C)p.r(C)p.r(A)p.r(C)p.r(C)p.r(A)p.r(G)p.r(U)p.d(T)p.d(T)}|RNA2{r(A)p.r(C)p.r(U)p.r(G)p.r(G)p.r(U)p.r(G)p.r(G)p.r(C)p.r(C)p.r(U)p.r(U)p.r(C)p.r(U)p.r(U)p.r(U)p.r(G)p.r(U)p.r(U)p.d(T)p.d(T)}$$$RNA1{StrandType:ss}|RNA2{StrandType:as}$ ), measured normalised inhibition (eCFP-eYFP dual reporter) is 87.1

----------
Target: NOG
Assay: reporter assay of Huesken 2005
Conditions: siRNA
Oligonucleotides are written 5' to 3', each unit as a sugar letter and its base; * is a phosphorothioate linkage, no mark a phosphodiester; rarer units and linkages stand in square brackets, end groups in braces. Plain capitals give the bases only. d = 2'-deoxy (DNA); r = 2'-OH (RNA)
assay-metric: normalised inhibition (eCFP-eYFP dual reporter) (%)
Give the value in % but do not write % after it.

These solved cases illustrate the format of a correct answer.
sense rCrArArGrGrArArArArGrGrArUrCrUrGrArArCdTdT / antisense rGrUrUrCrArGrArUrCrCrUrUrUrUrCrCrUrUrGdGdG :: 95.1
sense rArUrGrGrUrGrUrGrCrArArGrCrCrGrUrCrCrAdTdT / antisense rUrGrGrArCrGrGrCrUrUrGrCrArCrArCrCrArUdGdC :: 86.2

From here, focus on the item given below.
Item sense rGrCrArGrCrCrGrCrUrUrUrUrGrGrCrCrGrCrGdTdT / antisense rCrGrCrGrGrCrCrArArArArGrCrGrGrCrUrGrCdCdC ; assay system NOG; normalised inhibition (eCFP-eYFP dual reporter) reported as 46.4

----------
Target: SOST
Test: reporter assay of Huesken 2005
Conditions: siRNA
Oligonucleotides are given in HELM: sugar(base)linkage, 5' to 3'; d 2'-deoxyribose, r ribose, m 2'-O-methylribose, p phosphate. ss, as = sense and antisense strand
Catalogue of normalised inhibition (eCFP-eYFP dual reporter) values

These solved cases illustrate the format of a correct answer.
RNA1{r(G)p.r(G)p.r(G)p.r(C)p.r(G)p.r(G)p.r(C)p.r(C)p.r(U)p.r(C)p.r(C)p.r(C)p.r(C)p.r(A)p.r(C)p.r(C)p.r(A)p.r(C)p.r(C)p.d(T)p.d(T)}|RNA2{r(G)p.r(G)p.r(U)p.r(G)p.r(G)p.r(U)p.r(G)p.r(G)p.r(G)p.r(G)p.r(A)p.r(G)p.r(G)p.r(C)p.r(C)p.r(G)p.r(C)p.r(C)p.r(C)p.d(T)p.d(C)}$$$RNA1{StrandType:ss}|RNA2{StrandType:as}$ :: 64.3%
RNA1{r(C)p.r(G)p.r(U)p.r(G)p.r(U)p.r(C)p.r(C)p.r(G)p.r(A)p.r(G)p.r(U)p.r(A)p.r(C)p.r(A)p.r(G)p.r(C)p.r(U)p.r(G)p.r(C)p.d(T)p.d(T)}|RNA2{r(G)p.r(C)p.r(A)p.r(G)p.r(C)p.r(U)p.r(G)p.r(U)p.r(A)p.r(C)p.r(U)p.r(C)p.r(G)p.r(G)p.r(A)p.r(C)p.r(A)p.r(C)p.r(G)p.d(T)p.d(C)}$$$RNA1{StrandType:ss}|RNA2{StrandType:as}$ :: 54.8%
RNA1{r(U)p.r(U)p.r(C)p.r(A)p.r(C)p.r(C)p.r(C)p.r(G)p.r(C)p.r(U)p.r(A)p.r(C)p.r(G)p.r(U)p.r(G)p.r(A)p.r(C)p.r(C)p.r(G)p.d(T)p.d(T)}|RNA2{r(C)p.r(G)p.r(G)p.r(U)p.r(C)p.r(A)p.r(C)p.r(G)p.r(U)p.r(A)p.r(G)p.r(C)p.r(G)p.r(G)p.r(G)p.r(U)p.r(G)p.r(A)p.r(A)p.d(G)p.d(T)}$$$RNA1{StrandType:ss}|RNA2{StrandType:as}$ :: 57.5%

Item RNA1{r(C)p.r(U)p.r(G)p.r(G)p.r(U)p.r(G)p.r(G)p.r(C)p.r(C)p.r(U)p.r(C)p.r(G)p.r(U)p.r(G)p.r(C)p.r(A)p.r(A)p.r(G)p.r(U)p.d(T)p.d(T)}|RNA2{r(A)p.r(C)p.r(U)p.r(U)p.r(G)p.r(C)p.r(A)p.r(C)p.r(G)p.r(A)p.r(G)p.r(G)p.r(C)p.r(C)p.r(A)p.r(C)p.r(C)p.r(A)p.r(G)p.d(G)p.d(C)}$$$RNA1{StrandType:ss}|RNA2{StrandType:as}$ ; assay system SOST; normalised inhibition (eCFP-eYFP dual reporter) reported as 52.5%

Item RNA1{r(A)p.r(A)p.r(C)p.r(A)p.r(A)p.r(G)p.r(A)p.r(C)p.r(C)p.r(A)p.r(U)p.r(G)p.r(A)p.r(A)p.r(C)p.r(C)p.r(G)p.r(G)p.r(G)p.d(T)p.d(T)}|RNA2{r(C)p.r(C)p.r(C)p.r(G)p.r(G)p.r(U)p.r(U)p.r(C)p.r(A)p.r(U)p.r(G)p.r(G)p.r(U)p.r(C)p.r(U)p.r(U)p.r(G)p.r(U)p.r(U)p.d(G)p.d(T)}$$$RNA1{StrandType:ss}|RNA2{StrandType:as}$ ; assay system SOST; normalised inhibition (eCFP-eYFP dual reporter) reported as 69.7%

----------
Catalogue of normalised inhibition (eCFP-eYFP dual reporter) values
Target: Cacnb1 (rat)
Experiment: reporter assay of Huesken 2005
Details: siRNA
Oligonucleotides are given in HELM: sugar(base)linkage, 5' to 3'; d 2'-deoxyribose, r ribose, m 2'-O-methylribose, p phosphate. ss, as = sense and antisense strand
Report as: number unit

These solved cases illustrate the format of a correct answer.
RNA1{r(C)p.r(U)p.r(U)p.r(G)p.r(G)p.r(A)p.r(A)p.r(G)p.r(C)p.r(C)p.r(U)p.r(A)p.r(C)p.r(U)p.r(G)p.r(G)p.r(A)p.r(A)p.r(G)p.d(T)p.d(T)}|RNA2{r(C)p.r(U)p.r(U)p.r(C)p.r(C)p.r(A)p.r(G)p.r(U)p.r(A)p.r(G)p.r(G)p.r(C)p.r(U)p.r(U)p.r(C)p.r(C)p.r(A)p.r(A)p.r(G)p.d(T)p.d(A)}$$$RNA1{StrandType:ss}|RNA2{StrandType:as}$ :: 60.9%
RNA1{r(U)p.r(G)p.r(G)p.r(U)p.r(G)p.r(G)p.r(G)p.r(A)p.r(C)p.r(C)p.r(A)p.r(U)p.r(C)p.r(G)p.r(C)p.r(U)p.r(C)p.r(A)p.r(A)p.d(T)p.d(T)}|RNA2{r(U)p.r(U)p.r(G)p.r(A)p.r(G)p.r(C)p.r(G)p.r(A)p.r(U)p.r(G)p.r(G)p.r(U)p.r(C)p.r(C)p.r(C)p.r(A)p.r(C)p.r(C)p.r(A)p.d(G)p.d(G)}$$$RNA1{StrandType:ss}|RNA2{StrandType:as}$ :: 71.2%

For this substance ( RNA1{r(C)p.r(C)p.r(A)p.r(C)p.r(C)p.r(C)p.r(A)p.r(A)p.r(U)p.r(C)p.r(C)p.r(G)p.r(C)p.r(U)p.r(G)p.r(C)p.r(U)p.r(G)p.r(A)p.d(T)p.d(T)}|RNA2{r(U)p.r(C)p.r(A)p.r(G)p.r(C)p.r(A)p.r(G)p.r(C)p.r(G)p.r(G)p.r(A)p.r(U)p.r(U)p.r(G)p.r(G)p.r(G)p.r(U)p.r(G)p.r(G)p.d(C)p.d(G)}$$$RNA1{StrandType:ss}|RNA2{StrandType:as}$ ), measured normalised inhibition (eCFP-eYFP dual reporter) is 81.5%
